Target: GIP receptor (Homo sapiens)
Sequence (P48546 22-466): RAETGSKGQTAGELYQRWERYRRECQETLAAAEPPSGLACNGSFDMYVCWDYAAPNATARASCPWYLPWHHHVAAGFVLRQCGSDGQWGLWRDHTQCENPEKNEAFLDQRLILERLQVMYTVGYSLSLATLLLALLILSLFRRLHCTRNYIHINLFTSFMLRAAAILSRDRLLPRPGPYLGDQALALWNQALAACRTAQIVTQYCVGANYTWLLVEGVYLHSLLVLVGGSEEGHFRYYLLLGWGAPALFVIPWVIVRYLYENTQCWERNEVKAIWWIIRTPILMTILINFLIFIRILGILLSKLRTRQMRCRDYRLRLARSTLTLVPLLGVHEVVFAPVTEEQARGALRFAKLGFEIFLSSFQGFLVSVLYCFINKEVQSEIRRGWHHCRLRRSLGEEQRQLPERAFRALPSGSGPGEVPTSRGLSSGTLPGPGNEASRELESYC
Experiment: cAMP induction, firefly luciferase reporter assay in HEK293 cells co-transfected with GIP receptor
Format: cell-based
Conditions: EC50 (nM) at GIP receptor, Table 16, Example 24
*1 amine or outer side, *2 acyl side, *3 side chain or, on linkers, in order; H or OH if unused. Where no end group is shown, it is not given here. Side-chain parts run from the residue outwards. [ ]: non-standard residue; d: D form. The star is where a group is joined. γGlu = O=C(O)[C@H](CCC(=O)[*:2])N[*:1]; Palmitoyl = CCCCCCCCCCCCCCCC(=O)*; Aib = CC(C)(N)C(=O)O
Each record here notes measured EC50.
Give a bare numeral; the unit nM is implied.

• H[Aib]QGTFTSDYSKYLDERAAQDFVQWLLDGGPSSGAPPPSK([γGlu-γGlu-Palmitoyl])G-NH2 [SEQ ID NO: 89] = 0.028

QUERY: Fill in the blank: the reported EC50 of H[Aib]QGTFTSDYSKYLDERAAQDFVQWLLAGGPSSGAPPPSK([γGlu-γGlu-Palmitoyl])G-NH2 [SEQ ID NO: 203] is ____.
RESULT: 0.007
